Recorded values, source patent US12630530B2.

- system tested: FGFR1 V561M (Homo sapiens, UniProt P11362, V561M)
- Construct: purchased Signalchem F04-13G
- Sequence (P11362 22-822 V561M): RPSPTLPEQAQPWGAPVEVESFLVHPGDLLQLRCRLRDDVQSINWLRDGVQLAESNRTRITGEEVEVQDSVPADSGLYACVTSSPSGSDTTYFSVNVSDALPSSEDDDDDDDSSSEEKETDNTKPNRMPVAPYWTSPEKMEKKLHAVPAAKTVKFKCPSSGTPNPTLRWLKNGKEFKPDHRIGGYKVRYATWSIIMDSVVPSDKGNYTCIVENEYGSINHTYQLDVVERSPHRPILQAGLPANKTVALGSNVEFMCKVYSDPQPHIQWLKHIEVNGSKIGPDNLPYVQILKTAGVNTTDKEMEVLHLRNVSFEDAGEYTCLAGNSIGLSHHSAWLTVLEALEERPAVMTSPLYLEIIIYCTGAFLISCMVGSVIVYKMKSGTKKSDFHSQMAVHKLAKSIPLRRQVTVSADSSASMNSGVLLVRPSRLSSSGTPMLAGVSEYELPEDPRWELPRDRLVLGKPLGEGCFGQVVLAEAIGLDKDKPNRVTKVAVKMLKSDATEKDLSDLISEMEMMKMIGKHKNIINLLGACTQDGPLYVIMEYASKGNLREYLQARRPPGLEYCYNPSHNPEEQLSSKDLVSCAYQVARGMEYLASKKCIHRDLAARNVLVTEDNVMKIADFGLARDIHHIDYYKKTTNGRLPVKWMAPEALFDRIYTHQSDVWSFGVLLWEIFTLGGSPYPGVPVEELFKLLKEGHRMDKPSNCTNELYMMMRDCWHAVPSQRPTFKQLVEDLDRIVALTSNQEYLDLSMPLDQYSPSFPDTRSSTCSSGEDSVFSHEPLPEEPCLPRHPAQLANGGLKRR
- method summary: Assay I: inhibitory activity against FGFR mutants (HTRF KinEASE-TK)
- Format: biochemical
- condition summary: Table 1; ATP working concentration 5 μM, substrate TK 1 μM
readout name: IC50 (nM)

>>> value_observed("CC(Oc1ccc2[nH]nc(C(=O)Nc3cnn(C4CCN(C)CC4)c3)c2c1)c1c(Cl)cncc1Cl (stereo not shown)")
0.47
>>> value_observed("CC(Oc1ccc2[nH]nc(C(=O)Nc3ccc(N4CC[C@@H](O)C4)cc3)c2c1)c1c(Cl)cncc1Cl (stereo partly shown)")
69.7
>>> value_observed("C[C@@H]1CN(c2ccc(NC(=O)c3n[nH]c4ccc(O[C@H](C)c5c(Cl)cncc5Cl)cc34)cc2)C[C@H](C)N1")
2.3
>>> value_observed("CC(Oc1ccc2[nH]nc(C(=O)Nc3ccc(N4C[C@@H](C)N[C@@H](C)C4)nc3)c2c1)c1c(Cl)cncc1Cl (stereo partly shown)")
2.3

###

IC50 by entry:
- system tested: FGFR1 V561M (Homo sapiens, UniProt P11362, V561M)
- Construct: purchased Signalchem F04-13G
- method summary: Assay III: inhibitory activity against FGFR mutants (method of Assay I, different operator)
- Type: biochemical
- condition summary: Table 3; same method as Assay I, different experimental operator
readout name: IC50 (nM)

>>> value_observed("C[C@@H](Oc1ccc2[nH]nc(C(=O)Nc3cnn(Cc4cccnc4)c3)c2c1)c1c(Cl)cncc1Cl [Compound 49]")
0.51
>>> value_observed("C[C@@H](Oc1ccc2[nH]nc(C(=O)Nc3cnn(C4CCC(O)CC4)c3)c2c1)c1c(Cl)cncc1Cl (stereo partly shown) [Compound 48]")
1
>>> value_observed("CCN1CCC(Cn2cc(NC(=O)c3n[nH]c4ccc(O[C@H](C)c5c(Cl)cncc5Cl)cc34)cn2)CC1 [Compound 40]")
0.42
>>> value_observed("C[C@@H](Oc1ccc2[nH]nc(C(=O)Nc3cnn(CCN(C)C)c3)c2c1)c1c(Cl)cncc1Cl [Compound 36]")
0.88
>>> value_observed("CC(Oc1ccc2[nH]nc(C(=O)Nc3cnn(CCN4CCCC4)c3)c2c1)c1c(Cl)cncc1Cl (stereo not shown) [Compound 25]")
3.6
>>> value_observed("CCN1CC(Cn2cc(NC(=O)c3n[nH]c4ccc(O[C@H](C)c5c(Cl)cncc5Cl)cc34)cn2)C1 [Compound 39]")
0.35
>>> value_observed("CC(Oc1ccc2[nH]nc(C(=O)Nc3ccc(CN4CCOCC4)cc3)c2c1)c1c(Cl)cncc1Cl (stereo not shown) [Compound 30]")
36

###

IC50 by entry:
- system tested: FGFR1 V561M (Homo sapiens, UniProt P11362, V561M)
- Construct: purchased Signalchem F04-13G
- method summary: Assay III: inhibitory activity against FGFR mutants (method of Assay I, different operator)
- Type: biochemical
- condition summary: Table 3; same method as Assay I, different experimental operator
readout name: IC50 (nM)

>>> value_observed("C[C@@H](Oc1ccc2[nH]nc(C(=O)Nc3cnn(C4CCOCC4)c3)c2c1)c1c(Cl)cncc1Cl")
2.3
>>> value_observed("CC(Oc1ccc2[nH]nc(C(=O)Nc3cnn(C(C)C)c3)c2c1)c1c(Cl)cncc1Cl (stereo not shown)")
11.4
>>> value_observed("CC(Oc1ccc2[nH]nc(C(=O)Nc3cnn(CC(F)(F)F)c3)c2c1)c1c(Cl)cncc1Cl (stereo not shown)")
11
>>> value_observed("C[C@@H](Oc1ccc2[nH]nc(C(=O)Nc3cnn(Cc4ccncc4)c3)c2c1)c1c(Cl)cncc1Cl")
1.7

###

- system tested: FGFR1 (Homo sapiens, UniProt P11362)
- Construct: purchased Carna 08-133
- Sequence (P11362 22-822): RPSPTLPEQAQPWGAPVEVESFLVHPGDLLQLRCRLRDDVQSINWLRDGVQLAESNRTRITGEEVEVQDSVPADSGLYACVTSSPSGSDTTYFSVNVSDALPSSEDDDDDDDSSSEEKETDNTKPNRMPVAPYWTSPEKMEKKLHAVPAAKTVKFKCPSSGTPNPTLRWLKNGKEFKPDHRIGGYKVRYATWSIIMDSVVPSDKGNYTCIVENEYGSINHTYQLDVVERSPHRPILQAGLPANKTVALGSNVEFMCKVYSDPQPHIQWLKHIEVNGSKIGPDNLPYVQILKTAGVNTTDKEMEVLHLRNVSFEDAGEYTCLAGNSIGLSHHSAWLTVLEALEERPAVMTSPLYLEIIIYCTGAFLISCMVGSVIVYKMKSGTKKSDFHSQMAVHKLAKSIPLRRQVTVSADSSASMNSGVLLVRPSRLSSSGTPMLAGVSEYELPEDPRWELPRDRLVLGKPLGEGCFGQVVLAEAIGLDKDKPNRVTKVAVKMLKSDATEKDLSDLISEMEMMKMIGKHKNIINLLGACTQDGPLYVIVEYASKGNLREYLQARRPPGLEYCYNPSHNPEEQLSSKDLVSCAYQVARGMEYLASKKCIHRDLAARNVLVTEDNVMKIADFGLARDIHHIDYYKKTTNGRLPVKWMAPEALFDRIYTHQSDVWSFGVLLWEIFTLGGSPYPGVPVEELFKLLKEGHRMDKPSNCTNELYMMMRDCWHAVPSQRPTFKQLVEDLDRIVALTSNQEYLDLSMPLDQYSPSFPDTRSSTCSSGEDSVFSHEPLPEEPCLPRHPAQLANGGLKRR
- method summary: Assay II: inhibitory activity against wild-type FGFR (HTRF KinEASE-TK)
- Type: biochemical
- condition summary: Table 2, ATP working concentration 50 μM, substrate TK 1 μM
readout name: IC50 (nM)

>>> value_observed("CC(Oc1ccc2[nH]nc(C(=O)Nc3cnn(C4CCN(C)CC4)c3)c2c1)c1c(Cl)cncc1Cl (stereo not drawn) [Compound 14]")
11.1
>>> value_observed("CC(Oc1ccc2[nH]nc(C(=O)Nc3ccc(N4C[C@@H](C)N[C@@H](C)C4)nc3)c2c1)c1c(Cl)cncc1Cl (stereo partly drawn) [Compound 8]")
69.7
>>> value_observed("CC(Oc1ccc2[nH]nc(C(=O)Nc3ccc(N4CCN(C)CC4)cc3)c2c1)c1c(Cl)cncc1Cl (stereo not drawn) [Compound 9]")
61

###

IC50 by entry:
- system tested: FGFR1 V561M (Homo sapiens, UniProt P11362, V561M)
- Construct: purchased Signalchem F04-13G
- method summary: Assay III: inhibitory activity against FGFR mutants (method of Assay I, different operator)
- Assay type: biochemical
- condition summary: Table 3; same method as Assay I, different experimental operator
readout name: IC50 (nM)

>>> value_observed("CC(Oc1ccc2[nH]nc(C(=O)Nc3cnn(CCCO)c3)c2c1)c1c(Cl)cncc1Cl (stereo not shown) [Compound 29]")
2.3
>>> value_observed("C[C@H](O)Cn1cc(NC(=O)c2n[nH]c3ccc(O[C@H](C)c4c(Cl)cncc4Cl)cc23)cn1 [Compound 32]")
0.3
>>> value_observed("C[C@@H](Oc1ccc2[nH]nc(C(=O)Nc3cnn(C4CC(O)C4)c3)c2c1)c1c(Cl)cncc1Cl (stereo partly shown) [Compound 35]")
0.29
>>> value_observed("C[C@@H](Oc1ccc2[nH]nc(C(=O)Nc3cnn(CC4CCCN(C)C4)c3)c2c1)c1c(Cl)cncc1Cl (stereo partly shown) [Compound 44]")
1.1

###

IC50 by entry:
- system tested: FGFR2 V564F (Homo sapiens, UniProt P21802, V564F)
- Construct: purchased Signalchem F05-12FG
- Sequence (P21802 22-821 V564F): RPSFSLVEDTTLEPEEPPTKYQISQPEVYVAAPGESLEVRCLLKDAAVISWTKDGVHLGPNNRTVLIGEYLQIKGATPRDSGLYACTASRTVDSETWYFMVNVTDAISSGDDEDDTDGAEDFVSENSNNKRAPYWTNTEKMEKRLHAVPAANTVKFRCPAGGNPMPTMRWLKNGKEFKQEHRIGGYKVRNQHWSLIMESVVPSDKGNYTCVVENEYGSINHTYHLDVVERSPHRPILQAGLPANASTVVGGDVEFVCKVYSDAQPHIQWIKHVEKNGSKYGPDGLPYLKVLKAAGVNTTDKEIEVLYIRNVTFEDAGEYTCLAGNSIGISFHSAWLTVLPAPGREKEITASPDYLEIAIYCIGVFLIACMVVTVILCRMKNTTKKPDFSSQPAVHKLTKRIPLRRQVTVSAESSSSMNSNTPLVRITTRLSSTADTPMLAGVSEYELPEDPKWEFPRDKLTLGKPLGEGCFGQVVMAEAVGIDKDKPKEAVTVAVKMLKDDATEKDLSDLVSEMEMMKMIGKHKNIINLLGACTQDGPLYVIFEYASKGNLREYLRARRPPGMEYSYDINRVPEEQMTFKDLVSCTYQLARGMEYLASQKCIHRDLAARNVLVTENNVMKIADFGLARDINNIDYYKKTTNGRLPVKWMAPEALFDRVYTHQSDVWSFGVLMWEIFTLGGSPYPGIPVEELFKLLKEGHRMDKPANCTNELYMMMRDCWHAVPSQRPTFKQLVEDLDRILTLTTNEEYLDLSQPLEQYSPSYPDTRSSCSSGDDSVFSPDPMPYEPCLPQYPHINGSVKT
- method summary: Assay I: inhibitory activity against FGFR mutants (HTRF KinEASE-TK)
- Format: biochemical
- condition summary: Table 1; ATP working concentration 10 μM, substrate TK 1 μM
readout name: IC50 (nM)

>>> value_observed("CC(Oc1ccc2[nH]nc(C(=O)Nc3ccc(N4CCC(O)CC4)cc3)c2c1)c1c(Cl)cncc1Cl (stereo not drawn) [Compound 13]")
8.9
>>> value_observed("C[C@@H](Oc1ccc2[nH]nc(C(=O)Nc3cnn(CCO)c3)c2c1)c1c(Cl)cncc1Cl [Compound 7]")
0.42
>>> value_observed("CC(Oc1ccc2[nH]nc(C(=O)Nc3cnn(C(C)CC#N)c3)c2c1)c1c(Cl)cncc1Cl (stereo not drawn) [Compound 5]")
2.4
>>> value_observed("CC(Oc1ccc2[nH]nc(C(=O)Nc3ccc(N4CCN(C)CC4)cc3)c2c1)c1c(Cl)cncc1Cl (stereo not drawn) [Compound 9]")
0.94
>>> value_observed("CC(Oc1ccc2[nH]nc(C(=O)Nc3cnn(C4CN(C)C4)c3)c2c1)c1c(Cl)cncc1Cl (stereo not drawn) [Compound 21]")
0.09
>>> value_observed("CC(Oc1ccc2[nH]nc(C(=O)Nc3cnn(C4CCN(C)CC4)c3)c2c1)c1c(Cl)cncc1Cl (stereo not drawn) [Compound 14]")
0.14
>>> value_observed("CC(Oc1ccc2[nH]nc(C(=O)Nc3ccc(N4C[C@@H](C)N[C@@H](C)C4)nc3)c2c1)c1c(Cl)cncc1Cl (stereo partly drawn) [Compound 8]")
4
>>> value_observed("CC(Oc1ccc2[nH]nc(C(=O)Nc3cnn(C4CC(O)C4)c3)c2c1)c1c(Cl)cncc1Cl (stereo not drawn) [Compound 12]")
0.48
>>> value_observed("C[C@@H]1CN(c2ccc(NC(=O)c3n[nH]c4ccc(O[C@H](C)c5c(Cl)cncc5Cl)cc34)cc2)C[C@H](C)N1 [Compound 6]")
0.66
>>> value_observed("CC(Oc1ccc2[nH]nc(C(=O)Nc3ccc(N4C[C@@H](C)N[C@@H](C)C4)c(F)c3)c2c1)c1c(Cl)cncc1Cl (stereo partly drawn) [Compound 17]")
2.3
>>> value_observed("CCN1CCC(c2ccc(NC(=O)c3n[nH]c4ccc(OC(C)c5c(Cl)cncc5Cl)cc34)cc2)CC1 (stereo not drawn) [Compound 18]")
0.63
>>> value_observed("CC(Oc1ccc2[nH]nc(C(=O)Nc3ccc(N4C[C@@H](C)N[C@@H](C)C4)cn3)c2c1)c1c(Cl)cncc1Cl (stereo partly drawn) [Compound 16]")
34.1
>>> value_observed("CCN1CCN(c2ccc(NC(=O)c3n[nH]c4ccc(OC(C)c5c(Cl)cncc5Cl)cc34)cc2)CC1 (stereo not drawn) [Compound 10]")
3.2
>>> value_observed("CC(Oc1ccc2[nH]nc(C(=O)Nc3cnn(CCN4CCOCC4)c3)c2c1)c1c(Cl)cncc1Cl (stereo not drawn) [Compound 19]")
0.24
>>> value_observed("CCn1cc(NC(=O)c2n[nH]c3ccc(OC(C)c4c(Cl)cncc4Cl)cc23)cn1 (stereo not drawn) [Compound 20]")
0.82

###

- system tested: FGFR2 V564F (Homo sapiens, UniProt P21802, V564F)
- Construct: purchased Signalchem F05-12FG
- method summary: Assay III: inhibitory activity against FGFR mutants (method of Assay I, different operator)
- Assay type: biochemical
- condition summary: Table 3; same method as Assay I, different experimental operator
readout name: IC50 (nM)

>>> value_observed("CCN1CCC(Cn2cc(NC(=O)c3n[nH]c4ccc(O[C@H](C)c5c(Cl)cncc5Cl)cc34)cn2)CC1 [Compound 40]")
1.3
>>> value_observed("C[C@@H](Oc1ccc2[nH]nc(C(=O)Nc3cnn(Cc4cccnc4)c3)c2c1)c1c(Cl)cncc1Cl [Compound 49]")
0.55
>>> value_observed("CCn1cc(NC(=O)c2n[nH]c3ccc(O[C@H](C)c4c(Cl)cncc4Cl)cc23)cn1 [Compound 34]")
0.06
>>> value_observed("CCN1CC(n2cc(NC(=O)c3n[nH]c4ccc(O[C@H](C)c5c(Cl)cncc5Cl)cc34)cn2)C1 [Compound 31]")
0.11
>>> value_observed("CC(Oc1ccc2[nH]nc(C(=O)Nc3cnn(C(C)C)c3)c2c1)c1c(Cl)cncc1Cl (stereo not shown) [Compound 26]")
1.8
>>> value_observed("CCC(Oc1ccc2[nH]nc(C(=O)Nc3cnn(C)c3)c2c1)c1c(Cl)cncc1Cl (stereo not shown) [Compound 46]")
1
>>> value_observed("C[C@@H](Oc1ccc2[nH]nc(C(=O)Nc3cnn(C4CCC(O)CC4)c3)c2c1)c1c(Cl)cncc1Cl (stereo partly shown) [Compound 48]")
0.31
